Attribution: paper PMC4821856

System: C. jejuni 81–176
MEASUREMENT DESCRIPTION: Minimum bactericidal concentration (MBC)
Assay type: cell-based, Campylobacter jejuni
EXPERIMENTAL PARAMETERS: Campylobacter jejuni; concentration at which 99.9% of organisms are killed; read-out: C. jejuni MBC (minimum bactericidal concentration)
QUANTITY KIND: MBC (µM)
The answer is to be given in µM; state only the numeric part.

> print(dat)
                                   molecule  observed.measurement
1  Cc1c(C(C)NCc2cccc(OC3CCCC3)c2)cnn1-c1ccccc1 (stereo not shown)                    50
2       Cc1ccc(N2CCN(C/C=C/c3ccccc3)CC2)cc1                    50
3  CN(CC(O)COc1ccccc1CNC1(c2ccccc2)CC1)C1CCCCC1 (stereo not shown)                    25
4            Clc1ccc(N2CCN(Cc3ccsc3)CC2)cc1                    50
5  O=S(=O)(Nc1cccc(C(F)(F)F)c1)c1ccc(Br)cc1                    50

Query :: Which MBC reading was recorded for the molecule CN(Cc1cccc2cnccc12)CC1CCCN(CCc2ccc(F)cc2)C1 (stereo not shown) ?
Result :: 25

Query :: Which MBC reading was recorded for the molecule COc1ccc(CNCc2ccc(Cl)s2)cc1OCC(O)CN1CCCC1 (stereo not shown) ?
Result :: 100

Query :: Which MBC reading was recorded for the molecule CN(Cc1ccccc1)CC1CCCN(CCc2ccc(F)cc2)C1 (stereo not shown) ?
Result :: 25

Query :: Which MBC reading was recorded for the molecule CC(=O)Nc1ccc(CN(C)CC2CCCN(CCc3cccc(C(F)(F)F)c3)C2)cc1 (stereo not shown) ?
Result :: 25

Query :: Which MBC reading was recorded for the molecule O=c1c(Cl)c(Cl)cnn1-c1ccccc1Cl ?
Result :: 12.5

---

Tested on: Caco-2 (human colonic carcinoma) cells
MEASUREMENT DESCRIPTION: Cytotoxicity by LDH release
Assay type: cell-based
EXPERIMENTAL PARAMETERS: Caco-2 cells, 200 μM, 24 h, LDH release, no FBS
Description: We evaluated 12 selected compounds for cytotoxicity to Caco-2 (human colonic carcinoma) cells as described previously (Xu et al., [2015]). […] It was necessary to assess the dose dependent cytotoxicity effect of DMSO as compounds were diluted in DMSO therefore, we determined the cytotoxic effect of varying concentrations of the DMSO vehicle control (1, 2, and 5%) in Caco-2 cells containing 150 μL of media (without FBS) incubated at 24 h. […]
QUANTITY KIND: Cytotoxicity (%)
Field note: include the unit after the figure.

Solved entries:
> print(dat)
                                   molecule     quantity.kind  observed.measurement
1       COc1ccc(CN2CCN(c3ccc(F)cc3)CC2)cc1C  Cytotoxicity (%)                  6.9%
2  COc1ccc(CNCc2ccc(Cl)s2)cc1OCC(O)CN1CCCC1 (centres unmarked)  Cytotoxicity (%)                    0%
3  CN(Cc1cccc2cnccc12)CC1CCCN(CCc2ccc(F)cc2)C1 (centres unmarked)  Cytotoxicity (%)                    0%
4       Cc1ccc(N2CCN(C/C=C/c3ccccc3)CC2)cc1  Cytotoxicity (%)                  6.5%

Query :: Which Cytotoxicity (%) reading was recorded for the molecule Clc1ccc(N2CCN(Cc3ccsc3)CC2)cc1 ?
Result :: 4.6%

---

System: C. jejuni 81–176
MEASUREMENT DESCRIPTION: Single step resistance assay at lethal dose (5X MIC) on solid media
Type: cell-based, Campylobacter jejuni
EXPERIMENTAL PARAMETERS: solid MH agar with 5X MIC, 5 days, 42°C; resistant colonies observed yes/no
QUANTITY KIND: Resistance, single step 5X MIC

Solved entries:
> print(dat)
                                   molecule  observed.measurement
1   Clc1ccc(N2CCN(Cc3ccsc3)CC2)cc1 [Comp 4]                    No
2  Cc1ccc(N2CCN(C/C=C/c3ccccc3)CC2)cc1 [Comp 5]                    No
3  COc1ccc(CNCc2ccc(Cl)s2)cc1OCC(O)CN1CCCC1 (stereo not drawn) [Comp 12]                    No
4  CN(Cc1cccc2cnccc12)CC1CCCN(CCc2ccc(F)cc2)C1 (stereo not drawn) [Comp 13]                    No
5  CN(C)c1ccc(CN2CCN(c3ccccc3Cl)CC2)cc1 [Comp 3]                    No

Query :: Which Resistance, single step 5X MIC reading was recorded for the molecule CN(Cc1ccccc1)CC1CCCN(CCc2ccc(F)cc2)C1 (stereo not drawn) [Comp 18] ?
Result :: No
